B1: TPR 5TU (parent)
chain: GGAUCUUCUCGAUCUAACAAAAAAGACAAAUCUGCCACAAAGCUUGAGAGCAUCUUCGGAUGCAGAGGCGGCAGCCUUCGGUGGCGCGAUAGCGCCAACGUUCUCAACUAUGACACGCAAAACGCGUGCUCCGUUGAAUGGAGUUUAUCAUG

Variants of: B1
Experiment: polymerase ribozyme fitness, log enrichment relative to wild type (log ratio); higher = more active; in vitro selection for triplet polymerase activity
This sample holds only a part of the variants without activity.
Reported polymerase ribozyme fitness (log ratio) is given for each of the following variants.

- Mutation Spec: "A91G U127A"
  polymerase ribozyme fitness (log ratio): "≤ -4.2"

Qu. Query (variant): A23G A40G G50U C76A G84C ; field requested: polymerase ribozyme fitness (log ratio)
Ans. ≤ -4.2

Qu. Ok, now G68A G86A C87G
Ans. ≤ -4.2

Qu. Ok, now C43G G84A C95A A106U C118G G143U
Ans. ≤ -4.2

Qu. Ok, now C36U A52G C69U C85U U109G C118A
Ans. -3.73

Qu. Ok, now C10U G42C G88U C105G G143U
Ans. ≤ -4.2

Qu. Ok, now C87U U146G
Ans. -0.864

Qu. Ok, now A41U C93A
Ans. -3.19

Qu. Ok, now U55A U78G G94U C114G
Ans. ≤ -4.2

Qu. Ok, now U31A A66U G86U G100C
Ans. ≤ -4.2
